test-summary: In vivo test-1: transfer of drugs from transdermal patches to the plasma and ocular tissues
experimental-setup: male, Wistar/ST, rat, plasma, other: transdermal patch applied on the abdominal skin, 10 cm^2
measured-property: concentration at 8 h (ng/mL)
# output: bare number, implied unit ng/mL

Data point: `CC(C)C[C@@H](C=O)NC(=O)[C@@H](NS(=O)(=O)c1ccc(F)cc1)C(C)C` ; concentration at 8 h = 50

====

test-summary: In vivo test-1: transfer of drugs from transdermal patches to the plasma and ocular tissues
experimental-setup: male, Wistar/ST, rat, plasma, other: transdermal patch applied on the abdominal skin, 10 cm^2
measured-property: concentration at 18 h (ng/mL)
# output: bare number, implied unit ng/mL

Data point: CC(C)C[C@@H](C=O)NC(=O)[C@@H](NS(=O)(=O)c1ccc(F)cc1)C(C)C [SJA6017] ; concentration at 18 h = 68

====

test-summary: in vivo
experimental-setup: male, Wistar/ST, rat
measured-property: concentration at 0 h (ng/mL)
# output: bare number, implied unit ng/mL

Data point: `C[C@]12C=CC(=O)C=C1CC[C@@H]1[C@@H]2[C@@H](O)C[C@@]2(C)[C@H]1CC[C@]2(O)C(=O)CO` ; concentration at 0 h = 0

====

test-summary: In vivo test-1: transfer of drugs from transdermal patches to the plasma and ocular tissues
experimental-setup: male, Wistar/ST, rat, plasma, other: transdermal patch applied on the abdominal skin, 10 cm^2 patch
measured-property: concentration at 2 h (ng/mL)
# output: bare number, implied unit ng/mL

Data point: `CC(C)C[C@@H](C=O)NC(=O)[C@@H](NS(=O)(=O)c1ccc(F)cc1)C(C)C` ; concentration at 2 h = 30

====

test-summary: in vivo
experimental-setup: male, Wistar/ST, rat
measured-property: concentration at 2 h (ng/mL)
# output: bare number, implied unit ng/mL

Data point: C[C@]12C=CC(=O)C=C1CC[C@@H]1[C@@H]2[C@@H](O)C[C@@]2(C)[C@H]1CC[C@]2(O)C(=O)CO [Prednisolone, prednisolone] ; concentration at 2 h = 220

====

test-summary: in vivo
experimental-setup: male, Wistar/ST, rat
measured-property: concentration at 8 h (ng/mL)
# output: bare number, implied unit ng/mL

Data point: `C[C@]12C=CC(=O)C=C1CC[C@@H]1[C@@H]2[C@@H](O)C[C@@]2(C)[C@H]1CC[C@]2(O)C(=O)CO` ; concentration at 8 h = 608

====

test-summary: In vivo test-1: transfer of drugs from transdermal patches to the plasma and ocular tissues
experimental-setup: male, Wistar/ST, rat, plasma, other: transdermal patch applied on the abdominal skin, 10 cm^2 patch
measured-property: concentration at 0 h (ng/mL)
# output: bare number, implied unit ng/mL

Data point: `CC(C)C[C@@H](C=O)NC(=O)[C@@H](NS(=O)(=O)c1ccc(F)cc1)C(C)C` ; concentration at 0 h = 0

====

test-summary: In vivo test-2: SJA6017 transdermal patch, transfer to the plasma and ocular tissues
Design: species or system Wistar/ST rats
experimental-setup: male, Wistar/ST, other: transdermal patch applied on the abdominal skin, 30 cm^2 patch; transdermal application, SJA6017 patch 30 cm^2, rat; 12 hours after application; read-out: Intraocular concentration, itemized: Other ocular tissues (cornea, sclera, iris-ciliary body, vitreous body, retina-choroid)
measured-property: concentration at 12 h

Data point: `CC(C)C[C@@H](C=O)NC(=O)[C@@H](NS(=O)(=O)c1ccc(F)cc1)C(C)C` ; concentration at 12 h = 13.8 ng/g
